- Test system: NCI-H23
- PROTOCOL DESCRIPTION: Cell cycle arrest in human NCI-H23 cells assessed as accumulation at G2/M phase after 24 hrs using propidium iodide staining by FACS analysis
- Format: functional, cell-based
- EXPERIMENTAL SETUP: NCI-H23, 24 h
Answer each item with its documented IC50.
Numbers only, in µM.

# MOLECULE, IC50 / µM
rows = [
    ("CC(=O)Nc1cc(C(=O)c2cc(C)nc(N3CCOCC3)c2)cc(-c2cccc3[nH]ccc23)c1", 0.04),
    ("COC(=O)Nc1cc(C(=O)c2ccnc(N3CCOCC3)c2)cc(-c2cccc3[nH]ccc23)c1", 0.03),
]

input: # input molecule: COc1cc2c(c(OC)c1OC)-c1ccc(OC)c(=O)cc1[C@@H](NC(C)=O)CC2 [COLCHICINE] ; wanted: its IC50
output: 0.013

* * *

- PROTOCOL DESCRIPTION: Oral bioavailability in Sprague-Dawley rat at 20 mg/kg
- Assay type: ADME, organism-based
- EXPERIMENTAL SETUP: in vivo
REPORTED ENDPOINT: bioavailability (%)
Numbers only, in %.

input: # input compound: Oc1cc(Nc2cccnc2)cc(-c2cccc3[nH]ccc23)c1 ; wanted: its bioavailability
output: 24
